experiment: Pharmacokinetic test in rats; assay type: in vivo; conditions: rat, po; male SD rats, intragastric administration (10 mg/kg), plasma
Listed next: entries and their corresponding AUC(0-t).

{"smiles repr": "O=C(N[C@H]1CC[C@H](/C=C/c2coc(CN3Cc4ccc(C(F)(F)F)cc4C3)cc2=O)CC1)C1CC1", "unit abbrev": "ng·h/mL", "AUC(0-t)": 17400}
{"smiles repr": "O=C(CC1CC1)N1CCC(/C=C/c2coc(CN3Cc4ccc(C(F)(F)F)cc4C3)cc2=O)CC1", "unit abbrev": "ng·h/mL", "AUC(0-t)": 10500}
{"smiles repr": "O=C(N[C@H]1CC[C@H](COc2coc(CN3Cc4ccc(C(F)(F)F)cc4C3)cc2=O)CC1)C1COC1", "unit abbrev": "ng·h/mL", "AUC(0-t)": 19100}
{"smiles repr": "O=c1cc(CN2Cc3ccc(C(F)(F)F)cc3C2)occ1/C=C/[C@H]1CC[C@H](NC(=O)[C@H]2C[C@H](F)C2)CC1", "unit abbrev": "ng·h/mL", "AUC(0-t)": 11600}
{"smiles repr": "C/C(=C\\[C@H]1CC[C@H](NC(=O)c2cnn(C)c2)CC1)c1coc(CN2Cc3ccc(C(F)(F)F)cc3C2)cc1=O", "unit abbrev": "ng·h/mL", "AUC(0-t)": 22500}
{"smiles repr": "[2H]C([2H])([2H])C(=O)N[C@H]1CC[C@H](COc2coc(CN3Cc4ccc(C(F)(F)F)cc4C3)cc2=O)CC1", "unit abbrev": "ng·h/mL", "AUC(0-t)": 19600}
{"smiles repr": "CS(=O)(=O)N1CC(OC(=O)N2CCC(COc3coc(CN4Cc5ccc(C(F)(F)F)cc5C4)cc3=O)CC2)C1", "unit abbrev": "ng·h/mL", "AUC(0-t)": 5240}
